System: Bacillus subtilis ATCC 6633
Format: cell-based
Details: ATCC 6633, 18 h
Structures can show the parent of a compound that is named as a salt. Where a SMILES comes first, the peptide text is derived from it. Bridges are numbered along the chain shown (N, C = ends). Roman numbers before positions name the chains, in order. The star is where a group is joined. Palmitoyl = CCCCCCCCCCCCCCCC(=O)*; Myristoyl = CCCCCCCCCCCCCC(=O)*; Lauroyl = CCCCCCCCCCCC(=O)*

| Compound | Study Target | Unit Text | Rel | MIC against B. subtilis ATCC 6633 |
| --- | --- | --- | --- | --- |
| CCCCCCCCCCCC(=O)N[C@@H](CSSC[C@H](NC(=O)CCCCCCCCCCC)C(=O)N[C@@H](CCCCN)C(=O)N[C@@H](CCCCN)C(N)=O)C(=O)N[C@@H](CCCCN)C(=O)N[C@@H](CCCCN)C(N)=O [Laur-CKK-NH2 dimer] (I: Lauroyl-Cys-Lys-Lys-NH2 / II: Lauroyl-Cys-Lys-Lys-NH2; disulfide I:1-II:1) | Bacillus subtilis ATCC 6633 | µg/mL | = | 2 |
| CCCCCCCCCCCCCCCC(=O)N[C@@H](CCCCNC(=O)C(F)(F)F)C(=O)N[C@@H](CCCCNC(=O)C(F)(F)F)C(N)=O [Pal-K(TFA)K(TFA)-NH2] | Bacillus subtilis ATCC 6633 | µg/mL | > | 512 |
| CCCCCCCCCCCCCCCC(=O)N[C@@H](CCCCN)C(=O)NCC(=O)N[C@@H](CCCCN)C(N)=O [Pal-KGK-NH2] (Palmitoyl-Lys-Gly-Lys-NH2) | Bacillus subtilis ATCC 6633 | µg/mL | = | 2 |
| CCCCCCCCCCCCCC(=O)N[C@@H](CCCCN)C(=O)NCC(=O)N[C@@H](CCCCN)C(N)=O [Mir-KGK-NH2] (Myristoyl-Lys-Gly-Lys-NH2) | Bacillus subtilis ATCC 6633 | µg/mL | = | 2 |
| CCCCCCCCCCCCCCCC(=O)N[C@@H](CCCCN)C(=O)N[C@@H](CCCCN)C(N)=O | Bacillus subtilis ATCC 6633 | µg/mL | = | 2 |

* * *

Measured MIC against S. epidermidis ATCC 14490, listed per entry for reference.
Test system: Staphylococcus epidermidis ATCC 14490
Format: cell-based
Conditions: ATCC 14490, 18 h
Where a name gives a salt, the structure may show the parent alone. Where a SMILES comes first, the peptide text is derived from it. The star is where a group is joined. Myristoyl = CCCCCCCCCCCCCC(=O)*
Measurement Label: MIC against S. epidermidis ATCC 14490

| Compound | Measurement Label | Value Measured |
| --- | --- | --- |
| CCCCCCCCCCCCCCCC(=O)N[C@@H](CCCCNC(=O)C(F)(F)F)C(=O)N[C@@H](CCCCNC(=O)C(F)(F)F)C(N)=O [Pal-K(TFA)K(TFA)-NH2] | MIC against S. epidermidis ATCC 14490 | >512 µg/mL |
| CCCCCCCCCCCCCC(=O)N[C@@H](CCCCN)C(=O)NCC(=O)N[C@@H](CCCCN)C(N)=O [Mir-KGK-NH2] (Myristoyl-Lys-Gly-Lys-NH2) | MIC against S. epidermidis ATCC 14490 | 4 µg/mL |
| CCCCCCCCCCCCCCCC(=O)N[C@@H](CCCCN)C(=O)N[C@@H](CCCCN)C(N)=O [Pal-KK-NH2] | MIC against S. epidermidis ATCC 14490 | 4 µg/mL |

// data source = paper PMC4854934
